Reported IC50, CYP2C8 (Homo sapiens, UniProt P10632).
Answers are plain numbers, in µM.

| molecule | measurement_target | quantity_unit | IC50 |
| --- | --- | --- | --- |
| Fc1cc(Cl)c2nc(Nc3ccc(C4(C(F)(F)F)CC4)cc3)ccc2c1 [Compound 18] | CYP2C8 (Homo sapiens, UniProt P10632) | µM | 40.4 |

Now, please, on to the next molecule.
Record FC(F)(F)Oc1ccc(Nc2ccc3cccc(Cl)c3n2)cc1 [ABX464, reference compound] , field IC50: 35.9

----------
# measurement_target: CYP1A2 (Homo sapiens, UniProt P05177)
# Sequence (P05177 1-516): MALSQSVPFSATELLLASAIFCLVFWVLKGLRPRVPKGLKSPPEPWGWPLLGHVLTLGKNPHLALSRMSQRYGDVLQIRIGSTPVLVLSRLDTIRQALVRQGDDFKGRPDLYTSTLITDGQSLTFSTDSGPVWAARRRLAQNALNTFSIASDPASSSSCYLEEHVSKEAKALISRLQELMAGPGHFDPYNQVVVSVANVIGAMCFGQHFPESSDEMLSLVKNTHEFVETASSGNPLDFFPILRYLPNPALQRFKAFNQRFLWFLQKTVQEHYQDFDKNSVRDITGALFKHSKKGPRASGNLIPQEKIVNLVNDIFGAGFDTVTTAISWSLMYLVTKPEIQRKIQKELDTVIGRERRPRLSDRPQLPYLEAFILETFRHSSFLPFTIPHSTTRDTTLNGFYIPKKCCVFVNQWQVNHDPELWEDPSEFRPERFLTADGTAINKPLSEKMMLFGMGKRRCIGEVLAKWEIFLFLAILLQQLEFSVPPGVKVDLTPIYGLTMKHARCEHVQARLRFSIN
test_readout: IC50 (µM)
One number for each entry, in µM.

| compound | quantity_unit | IC50 |
| --- | --- | --- |
| Fc1cc(Cl)c2nc(Nc3ccc(C4(C(F)(F)F)CC4)cc3)ccc2c1 [Compound 18] | µM | 21.6 |

Record FC(F)(F)Oc1ccc(Nc2ccc3cccc(Cl)c3n2)cc1 [ABX464, reference compound] , field IC50: 0.097

----------
# measurement_target: CYP3A4 (Homo sapiens)
# Construct: Commercially available mixed human liver microsomes were used; from tissue; host or cells: pooled human liver microsomes
# Sequence (P08684 whole entry): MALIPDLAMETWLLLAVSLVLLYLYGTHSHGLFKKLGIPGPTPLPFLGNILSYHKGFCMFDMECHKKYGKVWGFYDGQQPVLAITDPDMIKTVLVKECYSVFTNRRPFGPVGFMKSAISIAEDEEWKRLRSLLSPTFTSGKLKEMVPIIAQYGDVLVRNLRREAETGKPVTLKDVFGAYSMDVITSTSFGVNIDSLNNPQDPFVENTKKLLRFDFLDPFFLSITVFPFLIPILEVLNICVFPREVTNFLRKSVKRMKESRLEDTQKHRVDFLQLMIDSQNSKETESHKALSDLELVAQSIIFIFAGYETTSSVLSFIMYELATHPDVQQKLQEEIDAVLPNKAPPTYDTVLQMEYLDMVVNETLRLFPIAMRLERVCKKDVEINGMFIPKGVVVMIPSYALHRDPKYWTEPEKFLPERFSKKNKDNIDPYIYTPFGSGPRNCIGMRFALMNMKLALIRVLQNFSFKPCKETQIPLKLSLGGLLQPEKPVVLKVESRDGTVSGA
# experiment_description: CYP enzyme inhibition, human liver microsomes, CYP3A4
# Type: in vitro ADME
# test_conditions: probe substrate Midazolam, read-out: IC50 CYP 3A4-Midazolam
test_readout: IC50 (µM)
Give bare numbers, in µM.

Record FC(F)(F)Oc1ccc(Nc2ccc3cccc(Cl)c3n2)cc1 [ABX464, reference compound] , field IC50: 73

----------
# measurement_target: CYP2C19 (Homo sapiens, UniProt P33261)
# Sequence (P33261 whole entry): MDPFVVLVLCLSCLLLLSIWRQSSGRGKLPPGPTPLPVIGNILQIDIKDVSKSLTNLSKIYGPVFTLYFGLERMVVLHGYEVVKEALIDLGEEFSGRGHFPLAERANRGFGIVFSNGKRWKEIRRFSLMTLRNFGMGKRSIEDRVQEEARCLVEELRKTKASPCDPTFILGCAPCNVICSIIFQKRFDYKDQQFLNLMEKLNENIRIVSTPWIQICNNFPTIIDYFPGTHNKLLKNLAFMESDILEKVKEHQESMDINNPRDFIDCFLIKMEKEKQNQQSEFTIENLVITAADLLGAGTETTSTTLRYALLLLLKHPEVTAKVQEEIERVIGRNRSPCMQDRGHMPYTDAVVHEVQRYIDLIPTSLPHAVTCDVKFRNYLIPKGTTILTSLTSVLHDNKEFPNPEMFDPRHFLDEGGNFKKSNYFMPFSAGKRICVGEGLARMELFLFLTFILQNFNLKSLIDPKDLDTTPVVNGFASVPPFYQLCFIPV
test_readout: IC50 (µM)
Numbers only, in µM.

Record FC(F)(F)Oc1ccc(Nc2ccc3cccc(Cl)c3n2)cc1 [ABX464, reference compound] , field IC50: 4.92

----------
# measurement_target: CYP2D6 (Homo sapiens, UniProt P10635)
# Sequence (P10635 whole entry): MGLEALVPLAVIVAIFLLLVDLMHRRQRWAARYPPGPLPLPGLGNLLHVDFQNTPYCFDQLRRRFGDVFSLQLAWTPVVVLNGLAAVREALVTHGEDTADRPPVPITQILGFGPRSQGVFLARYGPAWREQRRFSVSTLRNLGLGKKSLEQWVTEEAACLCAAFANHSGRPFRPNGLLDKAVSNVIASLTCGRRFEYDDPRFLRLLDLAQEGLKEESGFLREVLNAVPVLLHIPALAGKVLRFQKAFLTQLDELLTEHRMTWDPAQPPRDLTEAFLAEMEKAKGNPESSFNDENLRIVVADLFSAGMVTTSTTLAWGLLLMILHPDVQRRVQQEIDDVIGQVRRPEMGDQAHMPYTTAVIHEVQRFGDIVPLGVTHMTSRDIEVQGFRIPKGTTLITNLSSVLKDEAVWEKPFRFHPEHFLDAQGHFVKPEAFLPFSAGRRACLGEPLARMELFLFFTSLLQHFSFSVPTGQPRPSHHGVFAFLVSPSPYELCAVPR
test_readout: IC50
Include the unit right after the number.

Record FC(F)(F)Oc1ccc(Nc2ccc3cccc(Cl)c3n2)cc1 [ABX464, reference compound] , field IC50: 17.2 µM
